Measured ratio of KD at pH 5.8/pH7.4 of individual entries
Biological target: T1, cynomolgus monkey latent myostatin (cynomolgus monkey, UniProt Q95J86 25-266; Q95J86 267-375, limits assumed)
T1 construct: also called cyno latent myostatin
T1 sequence 1: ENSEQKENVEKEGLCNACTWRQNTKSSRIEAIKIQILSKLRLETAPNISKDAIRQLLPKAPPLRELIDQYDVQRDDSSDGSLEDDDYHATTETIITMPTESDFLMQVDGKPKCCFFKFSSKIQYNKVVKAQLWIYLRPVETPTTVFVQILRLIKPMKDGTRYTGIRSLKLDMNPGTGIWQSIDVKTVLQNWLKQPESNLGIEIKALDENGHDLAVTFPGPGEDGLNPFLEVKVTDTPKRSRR
T1 sequence 2: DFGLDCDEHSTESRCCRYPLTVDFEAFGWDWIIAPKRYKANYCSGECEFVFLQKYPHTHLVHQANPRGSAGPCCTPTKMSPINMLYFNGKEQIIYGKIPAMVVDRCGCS
Assay: SPR 37C

Binder	ratio of KD at pH 5.8/pH7.4
MS_M103245H1233-SG1/M103202L1045-SK1 (antibody, human IgG1, kappa, V domains shown, also called MS1032LO23-SG1) VH: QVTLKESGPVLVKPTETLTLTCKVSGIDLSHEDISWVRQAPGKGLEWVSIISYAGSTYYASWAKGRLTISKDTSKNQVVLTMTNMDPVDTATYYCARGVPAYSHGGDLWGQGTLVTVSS VL: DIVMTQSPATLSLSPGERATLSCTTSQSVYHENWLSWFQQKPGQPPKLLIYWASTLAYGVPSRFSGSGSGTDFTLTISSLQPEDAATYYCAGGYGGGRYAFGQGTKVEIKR	26
MS_M103240H1246-SG1/M103202L1045-SK1 (antibody, human IgG1, kappa, V domains shown, also called MS1032LO25-SG1) VH: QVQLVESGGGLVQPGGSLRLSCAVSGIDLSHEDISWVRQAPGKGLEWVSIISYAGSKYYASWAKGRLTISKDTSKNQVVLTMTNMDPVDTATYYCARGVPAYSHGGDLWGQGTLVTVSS VL: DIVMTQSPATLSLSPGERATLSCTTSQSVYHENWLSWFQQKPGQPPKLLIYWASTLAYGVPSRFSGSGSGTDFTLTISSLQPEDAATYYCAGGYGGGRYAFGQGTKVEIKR	41
MS_M103205H1186-SG1/M103202L889-SK1 (antibody, human IgG1, kappa, V domains shown, also called MS1032LO18-SG1) VH: QVTLKESGPVLVKPTETLTLTCTVSGIDLSHDDISWVRQAPGKGLEWVGIISYAGKKYYASWAKGRLTISKDTSKNQVVLTMTNMDPVDTATYYCARGVPAYSHGGDLWGQGTLVTVSS VL: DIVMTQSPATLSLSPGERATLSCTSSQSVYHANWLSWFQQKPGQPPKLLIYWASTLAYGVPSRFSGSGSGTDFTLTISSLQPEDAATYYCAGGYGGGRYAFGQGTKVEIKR	229

Origin of the recorded values: patent EP4755449A2
